Molecular target: UniProtKB P07858
Experiment: Cathepsin B inactivation rate, fluorimetric progress curves
Assay type: biochemical
Details: second order inactivation rate constant corrected for substrate; pH 5.4, 30° C.
Residues, ends and D or L forms follow the SMILES beside them. *: point of attachment. Cbz = O=C(OCc1ccccc1)*; CHN2 = [N-]=[N+]=C*; Bn = c1ccc(C*)cc1
Measured attribute: Cathepsin B k′2app

Data request: Given CC(C)C[C@H](NC(=O)OCc1ccccc1)C(=O)N[C@@H](CC(C)C)C(=O)N[C@@H](Cc1ccc(O)cc1)C(=O)C=[N+]=[N-] [CBZ-Leu-Leu-Tyr-CHN2, benzyloxycarbonyl -Leu-Leu-Tyr-CHN2] (Cbz-Leu-Leu-Tyr-CHN2) , respond with its Cathepsin B k′2app.
Data returned: 1,300 M^−1S^−1

Data request: Given [N-]=[N+]=CC(=O)C(CSCc1ccccc1)NC(=O)C(Cc1ccccc1)NC(=O)OCc1ccccc1 (stereo not drawn) [CBZ-Phe-Cys(SBnz1)-CHN2, benzyloxycarbonyl-Phe-Cys-(SBz)-CHN2] (Cbz-Phe-Cys(Bn)-CHN2; configuration not given here) , respond with its Cathepsin B k′2app.
Data returned: 30,000 M^−1S^−1

Data request: Given [N-]=[N+]=CC(=O)C(COCc1ccccc1)NC(=O)C(Cc1ccccc1)NC(=O)OCc1ccccc1 (stereo not drawn) [CP-1, benzyloxycarbonyl-Phe-Ser(OBz)-CHN2] (Cbz-Phe-Ser(Bn)-CHN2; configuration not given here) , respond with its Cathepsin B k′2app.
Data returned: 8,800 M^−1S^−1

Data request: Given CC(C)CC(NC(=O)OCc1ccccc1)C(=O)NC(Cc1c[nH]c2ccccc12)C(=O)C=[N+]=[N-] (centres unmarked) , respond with its Cathepsin B k′2app.
Data returned: <50 M^−1S^−1

Data request: Given CC(OC(C)(C)C)C(NC(=O)C(Cc1ccccc1)NC(=O)OCc1ccccc1)C(=O)C=[N+]=[N-] (centres unmarked) , respond with its Cathepsin B k′2app.
Data returned: 160 M^−1S^−1

====

Molecular target: Cathepsin L (Homo sapiens)
Assay: Cathepsin L inactivation rate, fluorimetric progress curves
Assay type: biochemical
Conditions: second order inactivation rate constant corrected for substrate; substrate Z-Phe-Arg-AMC; pH 5.4, 30° C.
Residues, ends and D or L forms follow the SMILES beside them. *: point of attachment. Cbz = O=C(OCc1ccccc1)*; CHN2 = [N-]=[N+]=C*
Measured attribute: Cathepsin L k′2app

The cases that follow already have their Cathepsin L k′2app on record.
Data request: Given CC(C)C[C@H](NC(=O)OCc1ccccc1)C(=O)N[C@@H](CC(C)C)C(=O)N[C@@H](Cc1ccc(O)cc1)C(=O)C=[N+]=[N-] [CBZ-Leu-Leu-Tyr-CHN2, benzyloxycarbonyl -Leu-Leu-Tyr-CHN2] (Cbz-Leu-Leu-Tyr-CHN2) , respond with its Cathepsin L k′2app.
Data returned: 1,500,000 M^−1S^−1

Data request: Given [N-]=[N+]=CC(=O)[C@H](Cc1ccccc1)NC(=O)[C@H](Cc1ccccc1)NC(=O)OCc1ccccc1 [CBZ-Phe-Phe-CHN2, benzyloxycarbonyl-Phe-Phe-CHN2] (Cbz-Phe-Phe-CHN2) , respond with its Cathepsin L k′2app.
Data returned: 140,000 M^−1S^−1

Below: the item to evaluate.
Data request: Given CC(C)CC(NC(=O)OCc1ccccc1)C(=O)NC(Cc1ccc(O)cc1)C(=O)C=[N+]=[N-] (stereo not drawn) [CBZ-Leu-Tyr-CHN2, benzyloxycarbonyl-Leu-Tyr-CHN2] (Cbz-Leu-Tyr-CHN2; configuration not given here) , respond with its Cathepsin L k′2app.
Data returned: 1,500,000 M^−1S^−1

====

Quick reference: Cathepsin B k′2app of the listed items.
Biological target: UniProt:P07858
Assay: Cathepsin B inactivation rate, fluorimetric progress curves
Type: biochemical
Conditions: second order inactivation rate constant corrected for substrate; pH 5.4, 30° C.
Residues, ends and D or L forms follow the SMILES beside them. *: point of attachment. Cbz = O=C(OCc1ccccc1)*; CHN2 = [N-]=[N+]=C*

Data request: Provide Cathepsin B k′2app, system UniProt:P07858, entry CSCCC(NC(=O)C(CC(C)C)NC(=O)OCc1ccccc1)C(=O)C=[N+]=[N-] (stereo not drawn) [CBZ-Leu-Met-CHN2, benzyloxycarbonyl-Leu-Met-CHN2] (Cbz-Leu-Met-CHN2; configuration not given here)
Data returned: 4,060 M^−1S^−1

Below: the item to evaluate.
Data request: Provide Cathepsin B k′2app, system UniProt:P07858, entry CC(C)CC(NC(=O)OCc1ccccc1)C(=O)NC(Cc1ccc(O)cc1)C(=O)C=[N+]=[N-] (stereo not drawn) [CBZ-Leu-Tyr-CHN2, benzyloxycarbonyl-Leu-Tyr-CHN2] (Cbz-Leu-Tyr-CHN2; configuration not given here)
Data returned: <50 M^−1S^−1

====

Quick reference: Cathepsin L k′2app of the listed items.
Target: Cathepsin L (Homo sapiens, UniProt P07711)
Sequence (P07711 114-333, species assumed): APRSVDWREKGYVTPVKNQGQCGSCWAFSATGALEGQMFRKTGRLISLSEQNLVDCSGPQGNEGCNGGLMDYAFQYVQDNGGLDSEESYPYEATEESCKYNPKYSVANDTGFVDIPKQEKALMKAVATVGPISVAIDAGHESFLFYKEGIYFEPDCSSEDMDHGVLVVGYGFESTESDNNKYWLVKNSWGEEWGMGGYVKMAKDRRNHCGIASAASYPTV
Experiment: Cathepsin L inactivation rate, fluorimetric progress curves
Format: biochemical
Settings: second order inactivation rate constant corrected for substrate; substrate Z-Phe-Arg-AMC; pH 5.4, 30° C.
Protocol: (“Tian, et al.”) the contents of which are incorporated by reference. More specifically, the value of kobs is given by the slope of a plot of ln [P]∞−[p]t versus t (time). The apparent second-order rate contact for inactivation, k2app was calculated as kobs/[I]. […]
Residues, ends and D or L forms follow the SMILES beside them. *: point of attachment. Cbz = O=C(OCc1ccccc1)*; CHN2 = [N-]=[N+]=C*; Bn = c1ccc(C*)cc1; tBu = CC(C)(C)*

Data request: Given CC(C)CC(NC(=O)OCc1ccccc1)C(=O)NC(Cc1c[nH]c2ccccc12)C(=O)C=[N+]=[N-] (stereo not drawn) [CBZ-Leu-Trp-CHN2, benzyloxycarbonyl-Leu-Trp-CHN2] , respond with its Cathepsin L k′2app.
Data returned: 12,000 M^−1S^−1

Further cases:
Data request: Given CC(C)(C)Oc1ccc(CC(NC(=O)C(Cc2ccccc2)NC(=O)OCc2ccccc2)C(=O)C=[N+]=[N-])cc1 (stereo not drawn) [CP-2, benzyloxycarbonyl-Phe-Tyr(OtBu)-CHN2] (Cbz-Phe-Tyr(tBu)-CHN2; configuration not given here) , respond with its Cathepsin L k′2app.
Data returned: 200,000 M^−1S^−1

Data request: Given CC(OC(C)(C)C)C(NC(=O)C(Cc1ccccc1)NC(=O)OCc1ccccc1)C(=O)C=[N+]=[N-] (centres unmarked) [CBZ-Phe-Thr(OtBu)-CHN2, benzyloxycarbonyl-Phe-Thr(O-t-Bu)-CHN2] , respond with its Cathepsin L k′2app.
Data returned: 60,000 M^−1S^−1

Data request: Given [N-]=[N+]=CC(=O)C(COCc1ccccc1)NC(=O)C(Cc1ccccc1)NC(=O)OCc1ccccc1 (stereo not drawn) [CP-1, benzyloxycarbonyl-Phe-Ser(OBz)-CHN2] (Cbz-Phe-Ser(Bn)-CHN2; configuration not given here) , respond with its Cathepsin L k′2app.
Data returned: 1,000,000 M^−1S^−1

Data request: Given CC(NC(=O)C(Cc1ccc(I)cc1)NC(=O)OCc1ccccc1)C(=O)C=[N+]=[N-] (centres unmarked) [CBZ-Phe(I)-Ala-CHN2, benzyloxycarbonyl-Phe (I) -Ala-CHN2] , respond with its Cathepsin L k′2app.
Data returned: 130,000 M^−1S^−1

====

Target: Cathepsin B (Homo sapiens, UniProt P07858)
Experiment: Cathepsin B inactivation rate, fluorimetric progress curves
Assay type: biochemical
Conditions: second order inactivation rate constant corrected for substrate; pH 5.4, 30° C.
Protocol: (“Tian, et al.”) the contents of which are incorporated by reference. More specifically, the value of kobs is given by the slope of a plot of ln [P]∞−[p]t versus t (time). The apparent second-order rate contact for inactivation, k2app was calculated as kobs/[I]. […]
Residues, ends and D or L forms follow the SMILES beside them. *: point of attachment. Cbz = O=C(OCc1ccccc1)*; CHN2 = [N-]=[N+]=C*; tBu = CC(C)(C)*
Measured attribute: Cathepsin B k′2app (M^−1S^−1)

a = CC(C)(C)Oc1ccc(CC(NC(=O)C(Cc2ccccc2)NC(=O)OCc2ccccc2)C(=O)C=[N+]=[N-])cc1 (stereo not drawn) [CP-2, benzyloxycarbonyl-Phe-Tyr(OtBu)-CHN2] (Cbz-Phe-Tyr(tBu)-CHN2; configuration not given here)
b = CC(NC(=O)C(Cc1ccc(I)cc1)NC(=O)OCc1ccccc1)C(=O)C=[N+]=[N-] (centres unmarked)
c = [N-]=[N+]=CC(=O)[C@H](Cc1ccccc1)NC(=O)[C@H](Cc1ccccc1)NC(=O)OCc1ccccc1 [CBZ-Phe-Phe-CHN2, benzyloxycarbonyl-Phe-Phe-CHN2] (Cbz-Phe-Phe-CHN2)
Data request: Place the item with the largest Cathepsin B k′2app first, then continue in falling order, using the list above. List the labels in the requested order.
Data returned: b, c, a

====

Molecular target: Cathepsin L (Homo sapiens, UniProt P07711)
Assay: Cathepsin L inactivation rate, fluorimetric progress curves
Type: biochemical
Details: second order inactivation rate constant corrected for substrate; substrate Z-Phe-Arg-AMC; pH 5.4, 30° C.
Non-standard residues stand in square brackets, D forms with d. Residues, ends and D or L forms follow the SMILES beside them. *: point of attachment. Phe(4-NO2) = N[CH](Cc1ccc([N+](=O)[O-])cc1)C(=O)O; Cit = NC(=O)NCCC[CH](N)C(=O)O; Cbz = O=C(OCc1ccccc1)*; CHN2 = [N-]=[N+]=C*; Bn = c1ccc(C*)cc1
Measured attribute: Cathepsin L k′2app

Data request: Given [N-]=[N+]=CC(=O)C(Cc1ccc([N+](=O)[O-])cc1)NC(=O)C(Cc1ccccc1)NC(=O)OCc1ccccc1 (stereo not drawn) [CBZ-Phe-Phe(pNO2)-CHN2, benzyloxycarbonyl-Phe-Phe (p-N02) -CHN2] (Cbz-Phe-[Phe(4-NO2)]-CHN2; configuration not given here) , respond with its Cathepsin L k′2app.
Data returned: 190,000 M^−1S^−1

Data request: Given CSCCC(NC(=O)C(CC(C)C)NC(=O)OCc1ccccc1)C(=O)C=[N+]=[N-] (stereo not drawn) [CBZ-Leu-Met-CHN2, benzyloxycarbonyl-Leu-Met-CHN2] (Cbz-Leu-Met-CHN2; configuration not given here) , respond with its Cathepsin L k′2app.
Data returned: 212,000 M^−1S^−1

Data request: Given [N-]=[N+]=CC(=O)C(CSCc1ccccc1)NC(=O)C(Cc1ccccc1)NC(=O)OCc1ccccc1 (stereo not drawn) [CBZ-Phe-Cys(SBnz1)-CHN2, benzyloxycarbonyl-Phe-Cys-(SBz)-CHN2] (Cbz-Phe-Cys(Bn)-CHN2; configuration not given here) , respond with its Cathepsin L k′2app.
Data returned: 390,000 M^−1S^−1

Further cases:
Data request: Given [N-]=[N+]=CC(=O)C(CCCNC(N)=O)NC(=O)C(Cc1ccccc1)NC(=O)OCc1ccccc1 (stereo not drawn) [CBZ-Phe-Cit-CHN2, benzyloxycarbonyl-Phe-Cit-CHN2] (Cbz-Phe-[Cit]-CHN2; configuration not given here) , respond with its Cathepsin L k′2app.
Data returned: 1,800,000 M^−1S^−1

Recorded values, source patent US6458760B1.
